target: CYP3A4 (Homo sapiens, UniProt P08684); experiment: Time dependent inhibition of CYP3A4 assessed as conversion of testosterone to 6-beta-hydroxytestosterone at 10 uM relative to control; assay type: ADME; conditions: probe testosterone
Sequence (P08684 whole entry): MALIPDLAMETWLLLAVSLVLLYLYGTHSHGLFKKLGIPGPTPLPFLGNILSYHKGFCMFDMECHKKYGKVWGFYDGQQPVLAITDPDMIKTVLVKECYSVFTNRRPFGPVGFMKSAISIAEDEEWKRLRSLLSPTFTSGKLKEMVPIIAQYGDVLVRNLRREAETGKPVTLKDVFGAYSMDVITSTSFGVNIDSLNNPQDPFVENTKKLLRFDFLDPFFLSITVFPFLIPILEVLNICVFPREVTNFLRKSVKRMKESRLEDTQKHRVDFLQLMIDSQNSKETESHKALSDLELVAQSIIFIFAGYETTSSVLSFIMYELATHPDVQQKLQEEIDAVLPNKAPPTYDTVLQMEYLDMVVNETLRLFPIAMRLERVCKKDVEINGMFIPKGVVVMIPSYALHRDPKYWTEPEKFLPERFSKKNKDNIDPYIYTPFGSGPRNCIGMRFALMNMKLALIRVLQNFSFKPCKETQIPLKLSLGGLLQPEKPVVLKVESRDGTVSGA
For each of the compounds below, state its inhibition at 10 µM.
Supply the numeric figure in %, leaving out any unit text.

Query string: Consider the compound shown here: "COCCc1cc(Cl)c(Cl)c(CN(C(=O)[C@H]2CNCC[C@@H]2c2ccn(C)c(=O)c2)C2CC2)c1" What is its recorded inhibition at 10 µM?
Result string: 23

Query string: Consider the compound shown here: "COCCCc1cc(CN(C(=O)[C@H]2CNCC[C@@H]2c2cccnc2)C2CC2)cc(OCCOC)c1" What is its recorded inhibition at 10 µM?
Result string: 9

Query string: Consider the compound shown here: "COCCCc1cc(CN(C(=O)[C@H]2CNCC[C@@H]2c2ccn(C)c(=O)c2)C2CC2)c2ncccc2c1" What is its recorded inhibition at 10 µM?
Result string: 16

----------
test: Volume of distribution at steady state in Sprague-Dawley rat at 20 mg/kg, po and 5 mg/kg, iv; conditions: in vivo, read-out: Vdss
property.measured: Vd (L/kg)
Supply the numeric figure in L/kg, leaving out any unit text.

Query string: Consider the compound shown here: "COCCCc1cc(CN(C(=O)[C@H]2CNCC[C@@H]2c2ccn(C)c(=O)c2)C2CC2)cc(Br)c1C" What is its recorded Vd?
Result string: 17

----------
biological target: CYP3A4 (Homo sapiens); assay: Reversible inhibition of CYP3A4 assessed as conversion of testosterone to 6-beta-hydroxytestosterone at 10 uM relative to control; type: ADME; details: probe testosterone
Threshold 40%. activity % at 10 µM below it: 1. activity % at 10 µM at it or above: 0.

Query string: Does the reported activity % at 10 µM of "COCCCc1cc(CN(C(=O)[C@H]2CNCC[C@@H]2c2ccn(C)c(=O)c2)C2CC2)cc(Br)c1C" stay below 40%?
Result string: 1

Query string: Does the reported activity % at 10 µM of "COCCCc1cc(CN(C(=O)[C@H]2CNCC[C@@H]2c2ccc(OCCOc3c(Cl)cc(C)cc3Cl)cc2)C2CC2)cc(OCCOC)c1" stay below 40%?
Result string: 1

Query string: Does the reported activity % at 10 µM of "COCCCc1cc(CN(C(=O)[C@H]2CNCC[C@@H]2c2cc(=O)n(C)c3ccccc23)C2CC2)cc(OCCOC)c1" stay below 40%?
Result string: 0

Query string: Does the reported activity % at 10 µM of "COCCCc1cc(CN(C(=O)[C@H]2CNCC[C@@H]2c2ccccc2)C2CC2)cc(OCCOC)c1" stay below 40%?
Result string: 1

Query string: Does the reported activity % at 10 µM of "Cn1ccc([C@H]2CCNC[C@@H]2C(=O)N(Cc2cn(Cc3ccncc3)c3cccc(F)c23)C2CC2)cc1=O" stay below 40%?
Result string: 0

Query string: Does the reported activity % at 10 µM of "COCCCn1cc(CN(C(=O)[C@H]2CNCC[C@@H]2c2ccn(C)c(=O)c2)C2CC2)c2c(Br)cccc21" stay below 40%?
Result string: 0

Query string: Does the reported activity % at 10 µM of "COCCc1cc(Cl)c(Cl)c(CN(C(=O)[C@H]2CNCC[C@@H]2c2ccn(C)c(=O)c2)C2CC2)c1" stay below 40%?
Result string: 0

Query string: Does the reported activity % at 10 µM of "COCCCn1cc(CN(C(=O)[C@H]2CNCC[C@@H]2c2ccn(C)c(=O)c2)C2CC2)c2c(Cl)cccc21" stay below 40%?
Result string: 0

Query string: Does the reported activity % at 10 µM of "COCCCc1cc(CN(C(=O)[C@H]2CNCC[C@@H]2c2ccn(C)c(=O)c2)C2CC2)c2ccccc2c1" stay below 40%?
Result string: 0

Query string: Does the reported activity % at 10 µM of "Cn1ccc([C@H]2CCNC[C@@H]2C(=O)N(Cc2cn(Cc3cccc(F)c3)c3cccc(F)c23)C2CC2)cc1=O" stay below 40%?
Result string: 1

Query string: Does the reported activity % at 10 µM of "COCCCc1cc(CN(C(=O)[C@H]2CNCC[C@@H]2c2ccn(C)c(=O)c2)C2CC2)c2ccccc2n1" stay below 40%?
Result string: 0

Query string: Does the reported activity % at 10 µM of "COCCCc1cc(Cl)c(Cl)c(CN(C(=O)[C@H]2CNCC[C@@H]2c2ccn(C)c(=O)c2)C2CC2)c1" stay below 40%?
Result string: 0

Query string: Does the reported activity % at 10 µM of "COC(=O)NCCc1cc(Cl)c(Cl)c(CN(C(=O)[C@H]2CNCC[C@@H]2c2ccn(C)c(=O)c2)C2CC2)c1" stay below 40%?
Result string: 0

Query string: Does the reported activity % at 10 µM of "COCCCc1cc(CN(C(=O)[C@H]2CNCC[C@@H]2c2ccn(C)c(=O)c2)C2CC2)cc(OCCOC)c1" stay below 40%?
Result string: 0

Query string: Does the reported activity % at 10 µM of "COCCCc1cc(CN(C(=O)[C@H]2CNCC[C@@H]2c2ccn(C)c(=O)c2)C2CC2)cc(-c2ccccc2)c1" stay below 40%?
Result string: 1

Query string: Does the reported activity % at 10 µM of "Cn1ccc([C@H]2CCNC[C@@H]2C(=O)N(Cc2c[nH]c3cccc(F)c23)C2CC2)cc1=O" stay below 40%?
Result string: 0
